Listing of recorded EC50 by entry.
Biological target: SIRT1 (Homo sapiens, UniProt Q96EB6)
Sequence (Q96EB6 1-747): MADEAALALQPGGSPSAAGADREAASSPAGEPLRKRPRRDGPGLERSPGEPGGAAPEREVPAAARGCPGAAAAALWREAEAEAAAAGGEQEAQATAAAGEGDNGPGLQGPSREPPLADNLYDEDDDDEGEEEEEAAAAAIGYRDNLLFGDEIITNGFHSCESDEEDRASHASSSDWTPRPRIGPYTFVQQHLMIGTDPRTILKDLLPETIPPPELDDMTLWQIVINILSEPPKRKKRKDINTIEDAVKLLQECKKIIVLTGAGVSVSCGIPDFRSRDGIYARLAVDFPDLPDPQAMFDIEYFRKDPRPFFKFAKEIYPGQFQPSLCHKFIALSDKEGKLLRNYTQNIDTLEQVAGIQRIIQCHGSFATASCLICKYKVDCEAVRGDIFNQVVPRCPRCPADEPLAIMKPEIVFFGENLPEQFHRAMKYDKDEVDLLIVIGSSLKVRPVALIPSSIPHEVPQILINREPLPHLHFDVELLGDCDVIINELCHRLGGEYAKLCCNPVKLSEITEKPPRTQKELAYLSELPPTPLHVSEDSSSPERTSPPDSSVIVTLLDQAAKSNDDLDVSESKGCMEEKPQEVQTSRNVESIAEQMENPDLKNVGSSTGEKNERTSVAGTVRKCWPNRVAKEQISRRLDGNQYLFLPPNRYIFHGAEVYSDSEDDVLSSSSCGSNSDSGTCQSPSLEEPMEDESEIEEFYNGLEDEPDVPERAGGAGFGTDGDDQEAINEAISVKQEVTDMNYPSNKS
Assay: SIRT1 mass spectrometry (MS) based deacetylation assay
Format: biochemical
Details: SIRT1 activation, mass spectrometry assay; read-out: ED50 MS ASSAY

// solved cases for EC50 follow
COc1cc(OC)cc(C(=O)Nc2ccccc2-c2nc3cc(CN(C)C)cnc3s2)c1 yielded EC50 of < 5 µM

For reference, reported EC50 for O=C(Nc1ccccc1-c1cn2c(CN3CCNCC3)csc2n1)c1ccc2ccccc2n1 stands at < 5 µM

Kindly note the recorded EC50 for COC(=O)c1cc(NC(=O)c2ccc(OC)c(OC)c2)cc(-c2nc3ncccc3o2)c1 , which is > 150 µM

# molecule COc1ccc(C(=O)Nc2ccccc2-c2cn3cccnc3n2)cc1OC ; its EC50 = < 5 µM

The recorded EC50 for c1ccc2oc(N3CCCN(c4nc5ccccc5o4)CC3)nc2c1 is > 150 µM

EC50 measured on CN(C)Cc1ccc2oc(-c3cccc(NC(=O)c4cccc(N(C)C)c4)c3)nc2n1 = > 150 µM

***
EC50 reading for Cc1nc(-c2cccc(Nc3nc4ccccc4o3)c2)cs1 : 5 to 50 µM

// COc1cc(C(=O)Nc2cc(C(=O)O)cc(-c3nc4ccncc4s3)c2)cc(OC)c1OC : EC50 value = < 5 µM
